Tested on: DU-145
Protocol Text: NCI tumour cell line growth inhibition, 48 h
Active and inactive are the calls of the source. No stated cut-off is given here; in the data, active = GI50 up to about 1.1 µM and inactive = higher.
Labels: active, inactive

- Compound: "Cc1nc2nn[nH]n2c(=O)c1CCO"
  Assigned Class: "inactive"
- Compound: "CN(C)c1ccc(/C=C(\\NC(=O)c2ccccc2)C(=O)NC(Cc2c[nH]c3ccccc23)C(=O)O)cc1 (stereo not drawn)"
  Assigned Class: "inactive"
- Compound: "CCC1([N+](=O)[O-])CN(N=O)C1"
  Assigned Class: "inactive"
- Compound: "CC(=O)NC1CONC1=O (stereo not drawn)"
  Assigned Class: "inactive"
- Compound: "CC(=O)O[C@H]1C[C@H](O[C@H]2[C@@H](O)C[C@H](O[C@H]3[C@@H](O)C[C@H](O[C@H]4CC[C@@]5(C)[C@H](CC[C@@H]6[C@@H]5CC[C@]5(O)[C@@H](C7=CC(=O)OC7)CC[C@]65O)C4)O[C@@H]3C)O[C@@H]2C)O[C@H](C)[C@H]1O[C@@H]1O[C@H](CO)[C@@H](O)[C@H](O)[C@H]1O"
  Assigned Class: "active"
- Compound: "COc1ccc(OC)c2c3c([nH]c12)C(=O)Nc1nc(N)nc(N)c1C3"
  Assigned Class: "inactive"
- Compound: "N/C(=N\\Nc1ccc(Cl)cc1)c1cnccn1"
  Assigned Class: "inactive"
- Compound: "COc1cc2c(cc1OCCCCN1CCN(CCCCOc3cc4c(cc3OC)C(=O)N3CCC[C@H]3C=N4)CC1)N=C[C@@H]1CCCN1C2=O"
  Assigned Class: "active"
- Compound: "COc1ccc2c3c([nH]c2c1)CCN(Cc1ccccc1)C3"
  Assigned Class: "inactive"
- Compound: "Cc1cc(S(=O)(=O)Nc2nc(N)n[nH]2)c(SCC(=O)O)cc1Cl"
  Assigned Class: "inactive"
- Compound: "O[C@H]1[C@H](O)[C@H](O)CN2CCC[C@@H](O)[C@H]12"
  Assigned Class: "inactive"
- Compound: "Nc1ccc(-c2nc3ccccc3s2)cc1Br"
  Assigned Class: "inactive"
- Compound: "COc1ccc(C(=O)N2CCN(c3ccc4[nH]c(=O)oc4c3)CC2)cc1"
  Assigned Class: "inactive"
- Compound: "O=C(NCc1ccccc1)c1cnc(Cl)cn1"
  Assigned Class: "inactive"
- Compound: "C=C(C)[C@H]1C2=CC(C)=C(O2)[C@@H](O)[C@H](C(=C)C)CCC2=C[C@H]1OC2=O [KALLOLIDE A]"
  Assigned Class: "inactive"
- Compound: "COC[C@H]1OC(=O)c2coc3c2[C@@]1(C)C1=C(C3=O)[C@@H]2CCC(=O)[C@@]2(C)C[C@H]1OC(C)=O"
  Assigned Class: "inactive"
- Compound: "COC(=O)c1cc(/C=C\\c2cc(OC)ccc2OC)ccc1OC"
  Assigned Class: "inactive"
- Compound: "N#Cc1c(N)c(C#N)c2c(c1-c1ccc(Cl)cc1)COc1ccccc1-2"
  Assigned Class: "inactive"

----------
Tested on: M14
Protocol Text: NCI tumour cell line growth inhibition, 48 h
Active and inactive are the calls of the source. No stated cut-off is given here; in the data, active = GI50 up to about 1.1 µM and inactive = higher.

- Entry Smiles: "C=CC(C)(C)c1c(OC)oc2ccc(OC)c(C)c2c1=O"
  GI50: "> 100 µM (inactive)"
- Entry Smiles: "Cc1ccc(C2=NN=C3C(c4ccccc4)=Nc4ccccc4N3C2)cc1"
  GI50: "3.64 µM (inactive)"
- Entry Smiles: "COc1ccc(/C=C/C(=O)Oc2ccccc2OC)cc1"
  GI50: "30.6 µM (inactive)"
- Entry Smiles: "Cn1c2c(c3ccccc31)CCN(CCCN1CCN(c3ccccc3)CC1)C2=O"
  GI50: "16.4 µM (inactive)"

----------
GI50 values for the molecules below.
Test system: KM12
Protocol Text: NCI tumour cell line growth inhibition, 48 h
The source made the active and inactive calls. Rule as the data show it: active = GI50 up to about 1.1 µM and inactive = higher.

- Molecule: "CC1=CC(=O)/C(=C/N2C(=O)CNC2=S)C(=O)O1"
  GI50: "> 100 µM (inactive)"
- Molecule: "O=C1/C(=C/c2ccc(Cl)cc2)N=C(c2ccccc2)N1C1Nc2cc3c(cc2S1)NC(N1C(=O)/C(=C/c2ccc(Cl)cc2)N=C1c1ccccc1)S3 (stereo not drawn)"
  GI50: "54 µM (inactive)"
- Molecule: "[N-]=[N+]=NC[C@H]1OCO[C@H](CN=[N+]=[N-])[C@@H](OCCOCCCl)[C@@H]1OCCOCCCl"
  GI50: "> 100 µM (inactive)"

----------
Test system: KM-20L2
Protocol Text: NCI tumour cell line growth inhibition, 48 h
The source made the active and inactive calls. Rule as the data show it: active = GI50 up to about 1.1 µM and inactive = higher.
Labels: true (1) for active, false (0) for inactive

- Compound: "COC(=O)c1c(C)cc2c(c1O)C1(O)C(=O)c3cc4c(c(O)c3C(=O)C1(OC)C(O)C2)C(=O)C=C(NC1OC(C)C(OC)C(O)C1OC)C4=O (stereo not drawn)"
  Assigned Class: "true (1)"
- Compound: "COc1cc(-c2ccccc2)c(OC)cc1CCl"
  Assigned Class: "false (0)"
- Compound: "O=C1c2ccccc2C(=O)c2[nH]c(Cc3ccc(F)cc3)nc21"
  Assigned Class: "false (0)"

----------
GI50 values for the molecules below.
Tested on: HT-29
Protocol Text: NCI tumour cell line growth inhibition, 48 h
Calls of active or inactive are those of the source. Rule as the data show it: active = GI50 up to about 1.1 µM and inactive = higher.

- Molecule: "N#CC(C(=O)/C(=N/NC(=O)c1ccccc1O)C(C#N)c1ccccc1)c1ccccc1 (stereo unspecified)"
  GI50: "> 100 µM (inactive)"
- Molecule: "CN(C)CCNCc1ccc2c(-c3ccccc3)nc3cc(Cl)c(Cl)cc3n12"
  GI50: "8.3 µM (inactive)"
- Molecule: "N#CC1(C#N)C2CCCCC23OC(=N)C1(C#N)C(c1ccccc1)O3 (stereo unspecified)"
  GI50: "18.2 µM (inactive)"
- Molecule: "O=c1[nH]cnc2c(COCCO)c[nH]c12"
  GI50: "> 100 µM (inactive)"
- Molecule: "COc1ccc(C(=O)N(Cc2cccnc2)C(=S)N(Cc2cccnc2)C(=O)c2ccc(OC)cc2)cc1"
  GI50: "> 100 µM (inactive)"
- Molecule: "CC1(C)OCC2(CO1)CSCCCSCC1(COC(C)(C)OC1)CSCCCSC2"
  GI50: "> 100 µM (inactive)"

----------
Tested on: MOLT-4
Protocol Text: NCI tumour cell line growth inhibition, 48 h
Activity calls are given as the source filed them. Rule as the data show it: active = GI50 up to about 1.1 µM and inactive = higher.
Readout: GI50

- Compound: "O=Nc1c(-c2cccc([N+](=O)[O-])c2)nc2cnccn12"
  Readout: "GI50"
  Measured: "3.92 µM (inactive)"
- Compound: "COc1cc(Nc2nc3cc(C(F)(F)F)ccc3nc2C)cc(OC)c1OC"
  Readout: "GI50"
  Measured: "6.95 µM (inactive)"
- Compound: "C[C@]1(O)CC(=O)c2c(c(-c3ccc4cc5c(c(O)c4c3O)C(=O)C[C@@](C)(O)C5)c3cccc(O)c3c2O)C1"
  Readout: "GI50"
  Measured: "9.44 µM (inactive)"
- Compound: "CCOC(=O)C(SCCO)C(C(=O)OCC)n1cnc2c(N)ncnc21 (stereo not given)"
  Readout: "GI50"
  Measured: "4.78 µM (inactive)"
- Compound: "Cc1cc(OCC(O)CO)ccc1Cl (stereo not given)"
  Readout: "GI50"
  Measured: "> 100 µM (inactive)"
- Compound: "C/C(=C/C(=O)Nn1c(Cc2ccccc2)n[nH]c1=O)C(=O)O"
  Readout: "GI50"
  Measured: "> 100 µM (inactive)"
- Compound: "COc1cc([C@H]2Oc3c(c(O)cc4oc(-c5ccccc5)cc(=O)c34)O[C@@H]2CO)ccc1O"
  Readout: "GI50"
  Measured: "> 10 µM (inactive)"
- Compound: "COC(=O)/C(=C\\c1ccco1)P(=O)(OC)OC"
  Readout: "GI50"
  Measured: "> 100 µM (inactive)"
- Compound: "C=C(C)[C@H]1C2=CC(C)=C(O2)[C@@H](O)[C@H](C(=C)C)CCC2=C[C@H]1OC2=O [KALLOLIDE A]"
  Readout: "GI50"
  Measured: "> 100 µM (inactive)"
- Compound: "CCOC(=O)C1(C(=O)OCC)C(C(C)(C)C)=C(C)c2ccccc21"
  Readout: "GI50"
  Measured: "29.9 µM (inactive)"
- Compound: "Nc1nc(-c2ccccc2)cc(-c2ccccc2O)n1"
  Readout: "GI50"
  Measured: "25.1 µM (inactive)"
- Compound: "COc1cc2c(cc1OCCCCN1CCN(CCCCOc3cc4c(cc3OC)C(=O)N3CCC[C@H]3C=N4)CC1)N=C[C@@H]1CCCN1C2=O"
  Readout: "GI50"
  Measured: "< 0.01 µM (active)"
- Compound: "COC(=O)C(=O)C(C(=O)C(=O)Nc1cc(C)ccc1C)c1nc2ccc(C(=O)c3ccccc3)cc2nc1O (stereo not given)"
  Readout: "GI50"
  Measured: "48.9 µM (inactive)"
- Compound: "c1csc(-c2cscc2-c2cccs2)c1"
  Readout: "GI50"
  Measured: "34.5 µM (inactive)"
- Compound: "CC1(C)OCC2(CO1)CSCCCSCC1(COC(C)(C)OC1)CSCCCSC2"
  Readout: "GI50"
  Measured: "> 100 µM (inactive)"
- Compound: "CCOC(=N)CC(=O)NC(C)c1ccccc1 (stereo not given)"
  Readout: "GI50"
  Measured: "> 100 µM (inactive)"
- Compound: "Nc1nc(N)c2nnn(C[C@H]3CC[C@@H](CO)C3)c2n1"
  Readout: "GI50"
  Measured: "> 100 µM (inactive)"
- Compound: "C[C@@H](NC(C#N)c1ccco1)c1ccccc1 (stereo not given in full)"
  Readout: "GI50"
  Measured: "> 100 µM (inactive)"
- Compound: "O=C(NC1C(=O)NNC1c1ccccc1Cl)c1ccccc1 (stereo not given)"
  Readout: "GI50"
  Measured: "64.4 µM (inactive)"
- Compound: "Cc1cc2nc(C=C(C(F)(F)F)C(F)(F)F)oc2cc1C"
  Readout: "GI50"
  Measured: "1.85 µM (inactive)"
- Compound: "COc1cc(/C=C2\\N=C(c3ccccc3)N(/N=C3\\C(=O)Nc4ccccc43)C2=O)cc(OC)c1OC"
  Readout: "GI50"
  Measured: "25.4 µM (inactive)"
- Compound: "CC(NC(=O)C(NC(=O)CNC(=O)OC(C)(C)C)C(C)C)C(=O)Oc1c(Cl)c(Cl)c(Cl)c(Cl)c1Cl (stereo not given)"
  Readout: "GI50"
  Measured: "34.6 µM (inactive)"
- Compound: "COC1(C)Cc2c(c(C)c(O)c3c2C(=O)C=C(Cl)C3=O)O1 (stereo not given)"
  Readout: "GI50"
  Measured: "7.5 µM (inactive)"
- Compound: "Cn1c(=O)oc2cc(Br)ccc21"
  Readout: "GI50"
  Measured: "> 100 µM (inactive)"
- Compound: "N#Cc1c(N2CCCC2)nsc1Nc1ccccc1"
  Readout: "GI50"
  Measured: "> 100 µM (inactive)"
- Compound: "N#CC(C(=O)/C(=N/NC(=O)c1ccccc1O)C(C#N)c1ccc(Br)cc1)c1ccc(Br)cc1 (stereo not given)"
  Readout: "GI50"
  Measured: "3.93 µM (inactive)"
- Compound: "CN(C)c1ccc(/C=C(\\NC(=O)c2ccccc2)C(=O)NC(Cc2c[nH]c3ccccc23)C(=O)O)cc1 (stereo not given)"
  Readout: "GI50"
  Measured: "> 100 µM (inactive)"
- Compound: "CN1C(=O)C(C)(C)C2(SC(C)(C)C2(C)C)N(C)C1=S (stereo not given)"
  Readout: "GI50"
  Measured: "89.3 µM (inactive)"
- Compound: "CC(=O)C(=NNc1ccc(-n2c(C)nc3ccc(Br)cc3c2=O)cc1)C(C)=O"
  Readout: "GI50"
  Measured: "> 100 µM (inactive)"
- Compound: "CC1CCCc2c(CC3CC(=O)NC(=O)C3)n[nH]c21 (stereo not given)"
  Readout: "GI50"
  Measured: "> 100 µM (inactive)"
- Compound: "O=C1C[C@H]2CCCN2[C@@H](c2ccccc2)C1"
  Readout: "GI50"
  Measured: "> 100 µM (inactive)"
- Compound: "COc1cccc(C2CC(C)(O)Oc3cc4c(cc32)OCO4)c1O (stereo not given)"
  Readout: "GI50"
  Measured: "37.4 µM (inactive)"
- Compound: "O=C(Cn1c(C(=O)c2ccccc2)nc2ccccc21)c1ccccc1"
  Readout: "GI50"
  Measured: "> 100 µM (inactive)"
- Compound: "CCOC(=O)c1c(-c2ccc(Cl)cc2)c(C#N)c(=S)n(C2OC(COC(C)=O)C(OC(C)=O)C(OC(C)=O)C2OC(C)=O)c1C (stereo not given)"
  Readout: "GI50"
  Measured: "> 100 µM (inactive)"
- Compound: "Cc1c(C(=O)Nc2ccccc2)nnn1-c1ccnc2cc(C(F)(F)F)ccc12"
  Readout: "GI50"
  Measured: "34 µM (inactive)"
